- Measurement Target: CYP72A565 (Camptotheca acuminata, UniProt A0A4Y5UJ61, K270T)
- Construct: full-length ORF, C-terminal His6, in pCWori, expressed in E. coli, purified; kinetics with Camptotheca CPR1 and DLPC
- Test Name: Type I difference spectral titration
- Type: binding
- Stated Conditions: read-out: Ks/mM

- Molecule: "COC(=O)C1=CO[C@@H](O[C@@H]2O[C@H](CO)[C@@H](O)[C@H](O)[C@H]2O)[C@@H]2[C@@H](C)[C@@H](O)C[C@H]12 [loganin]"
  Measurement Target: "CYP72A565 (Camptotheca acuminata, UniProt A0A4Y5UJ61, K270T)"
  Kd, mM: 1.2
